// data source = patent US6444691B1

system: rabbit intestinal mucosa ACAT (acylCoa:cholesterol acyltransferase); assay: In vitro inhibition of ACAT activity, rabbit intestinal mucosa microsomal fraction; format: biochemical; settings: rabbit intestinal mucosa microsomes, concentration 2 μM, versus enzyme activity in 1% dimethylsulfoxide
Property Label: Efficiency (%) mucosa (ACAT inhibition)

Use these answered entries as a reference point.
O=C(Nc1ccc(Oc2ccc([N+](=O)[O-])cc2)cc1)Nc1cccc(C(F)(F)F)c1    45
O=C(Nc1ccc(Oc2ccc([N+](=O)[O-])cc2)cc1)Nc1ccccc1C(F)(F)F    42
O=C(Nc1ccc(Sc2ccc([N+](=O)[O-])cc2)cc1)Nc1ccc(F)cc1F    23
Cc1ccccc1NC(=O)Nc1ccc(Sc2ccc([N+](=O)[O-])cc2)cc1    31
Cc1ccccc1NC(=O)Nc1ccc(Oc2ccc([N+](=O)[O-])cc2)cc1    0
O=C(Nc1ccc(Sc2ccc([N+](=O)[O-])cc2)cc1)Nc1ccc(Cl)c(Cl)c1    20

1. O=C(Nc1ccc(Oc2ccc([N+](=O)[O-])cc2)cc1)NC12CC3CC(CC(C3)C1)C2
2. Cc1cccc(C)c1NC(=O)Nc1ccc(Sc2ccc(N)cc2)cc1
3. Cc1cc(C)cc(NC(=O)Nc2ccc(Oc3ccc([N+](=O)[O-])cc3)cc2)c1
Q) Task for the reader: rank each entry by its Efficiency (%) mucosa (ACAT inhibition), from the minimum upward. # list labels per requested ordering
A) 3, 2, 1

a. O=C(Nc1ccc(Sc2ccc([N+](=O)[O-])cc2)cc1)Nc1cccnc1
b. O=C(Nc1ccc(Sc2ccc([N+](=O)[O-])cc2)cc1)Nc1ccc(C(F)(F)F)cc1
c. Cc1ccc(NC(=O)Nc2ccc(Oc3ccc([N+](=O)[O-])cc3)cc2)c(C)c1
d. Nc1ccc(Oc2ccc(NC(=O)Nc3ccc(F)cc3F)cc2)cc1
Q) List items by Efficiency (%) mucosa (ACAT inhibition) in falling order. # list labels per requested ordering
A) d, a, b, c

1. O=C(Nc1ccc(Sc2ccc([N+](=O)[O-])cc2)cc1)Nc1cc(Cl)cc(Cl)c1
2. Cc1cc(C)cc(NC(=O)Nc2ccc(Sc3ccc([N+](=O)[O-])cc3)cc2)c1
Q) Smaller Efficiency (%) mucosa (ACAT inhibition) value? Options are 1 and 2 Refer to your chosen entry by its label in the reply.
A) 1

1. O=C(Nc1ccc(Oc2ccc([N+](=O)[O-])cc2)cc1)Nc1ccc(C(F)(F)F)cc1
2. O=C(Nc1ccc(Oc2ccc([N+](=O)[O-])cc2)cc1)Nc1ccc2ccccc2c1
Q) Pick one: 1 or 2 . Which has the bigger Efficiency (%) mucosa (ACAT inhibition) number? Refer to your chosen entry by its label in the reply.
A) 1
(1: 18%, 2: 12%)

###

tested on: rabbit intestinal mucosa ACAT (acylCoa:cholesterol acyltransferase); assay: In vitro inhibition of ACAT activity, rabbit intestinal mucosa microsomal fraction; format: biochemical; details: rabbit intestinal mucosa microsomes, concentration 2 μM, versus enzyme activity in 1% dimethylsulfoxide
Property Label: Efficiency (%) mucosa (ACAT inhibition)

Use these answered entries as a reference point.
O=C(Nc1ccc(Sc2ccc([N+](=O)[O-])cc2)cc1)Nc1ccccc1Cl [Example 30]    26
O=C(Nc1ccc(Sc2ccc([N+](=O)[O-])cc2)cc1)Nc1ccccn1 [Example 46]    46
O=C(Nc1ccc(Sc2ccc([N+](=O)[O-])cc2)cc1)Nc1cccc(Cl)c1Cl [Example 32]    0
CC(C)c1cccc(C(C)C)c1NC(=O)Nc1ccc(Sc2ccc(N)cc2)cc1 [Example 59]    67
O=C(Nc1ccc(Oc2ccc([N+](=O)[O-])cc2)cc1)Nc1ccc(F)cc1F [Example 2]    55
O=C(Nc1ccc(Oc2ccc([N+](=O)[O-])cc2)cc1)Nc1ccccc1F [Example 1]    32

P. Cc1ccc(NC(=O)Nc2ccc(Oc3ccc([N+](=O)[O-])cc3)cc2)cc1 [Example 10]
Q. O=C(Nc1ccc(Oc2ccc([N+](=O)[O-])cc2)cc1)Nc1c(F)cccc1F [Example 4]
Q) Pick one: P or Q . Which has the bigger Efficiency (%) mucosa (ACAT inhibition) number? Refer to your chosen entry by its label in the reply.
A) Q
